Cited source: paper PMC9906001

- ASSAY_EXPLANATION: Plasma pharmacokinetics in Japanese PAH patients
- Type: in vivo, human
- STATED_CONDITIONS: human, plasma, inhaled or intranasal, 54 ug
MEASUREMENT_NAME: MRT (min)
// note: answer is a bare numeric in min

# get_value(readout='MRT', item= CCCCC[C@H](O)CC[C@@H]1[C@H]2Cc3cccc(OCC(=O)O)c3C[C@H]2C[C@H]1O )
55.8

###

- ASSAY_EXPLANATION: Plasma pharmacokinetics in Japanese PAH patients
- Type: in vivo, human
- STATED_CONDITIONS: human, plasma, inhaled or intranasal, 54 ug
MEASUREMENT_NAME: Vd/F (L)
// note: answer is a bare numeric in L

# get_value(readout='Vd/F', item= CCCCC[C@H](O)CC[C@@H]1[C@H]2Cc3cccc(OCC(=O)O)c3C[C@H]2C[C@H]1O )
76.7
